System: 8XTBD luciferase reporter (YAP) in HEK293T cells
Assay: YAP Reporter Assay
Format: cell-based
Conditions: Homo sapiens, HEK-293T; HEK293T cells stably transfected with 8XTBD luciferase reporter and pRLTK; 24-hr incubation; top concentration 3 μM; read-out: Firefly Luciferase IC50
REPORTED PROPERTY: IC50

Challenge: # query: IC50 | item "CNC(C)(C)c1nnc(-c2ccccc2Nc2ccc(C(F)(F)F)cc2)o1" | system: 8XTBD luciferase reporter (YAP) in HEK293T cells
Response given: 100 to 1000 nM

Challenge: API: value(readout=IC50, system=8XTBD luciferase reporter (YAP) in HEK293T cells) for record "CN(C#N)C(C)(C)c1nnc(-c2ccccc2Nc2ccc(C(F)(F)F)cc2)o1"
Response given: < 100 nM

Challenge: Give the reported IC50 for "N#Cc1nnc(-c2ccccc2Nc2ccc(C(F)(F)F)cc2)o1" (system: 8XTBD luciferase reporter (YAP) in HEK293T cells).
Response given: < 100 nM

Every entry's value here was drawn from patent US11661403B2.
